Data origin, for the record: patent US12252481B2

Reported EC50 values follow for various compounds
system: human beta-coronavirus OC43; test: OC43 coronavirus antiviral assay in HeLa cells (cytopathic effect, cell-titer-glo); type: cell-based; conditions: Betacoronavirus 1, OC43, HeLa, 144 h, 6 days at 33° C., read-out: EC50 (class)

COMPOUND	TESTED_SYSTEM	EC50
CC(C)(C)[C@H](NC(=O)C(F)(F)F)C(=O)N1C[C@H]2[C@@H]([C@H]1C(=O)NC(C#N)C[C@]13CC[C@H](C1)NC3=O)[C@H]1C=C[C@@H]2C1 (some centres unmarked) [Example 26]	human beta-coronavirus OC43	100 to 1000 nM
C[C@@H](OC1CC1)[C@H](NC(=O)C(F)(F)C(F)(F)F)C(=O)N1C[C@H]2[C@@H]([C@H]1C(=O)N[C@H](C#N)C[C@@H]1CCNC1=O)[C@H]1C=C[C@@H]2C1 [Compound 101]	human beta-coronavirus OC43	< 100 nM
CC(C)(C)[C@H](NC(=O)CC(F)(F)F)C(=O)N1C[C@H]2[C@@H]([C@H]1C(=O)N[C@H](C#N)C[C@@H]1Oc3ccncc3NC1=O)[C@H]1C=C[C@@H]2C1 [Compound 110]	human beta-coronavirus OC43	< 100 nM
CC(C)(C)[C@H](NC(=O)[C@H]1CCCO1)C(=O)N1C[C@H]2[C@@H]([C@H]1C(=O)N[C@H](C#N)C[C@@H]1CCNC1=O)[C@H]1C=C[C@@H]2C1 [Example 22]	human beta-coronavirus OC43	1000 to 10000 nM
CC(C)(C)[C@H](NC(=O)C(F)(F)F)C(=O)N1C[C@H]2[C@@H]([C@H]1C(=O)N[C@H](C#N)C[C@@H]1OCCCNC1=O)[C@H]1C=C[C@@H]2C1 [Compound 121]	human beta-coronavirus OC43	< 100 nM
